Here the recorded Fold-change determined at compound concentration 100 μM is given for each entry.
molecular target: PAPD5 (Homo sapiens); construct: made in house; experiment: High-throughput luminescence (KinaseGlo) RNA polyadenylation assay, ATP utilization by recombinant PAPD5; type: biochemical; conditions: Table 4 (entries of Table 5); 100 μM compound; ratio of luminescence with inhibitor to DMSO, higher = higher inhibition
Sequence (Q8NDF8 68-698 isoform Q8NDF8-5): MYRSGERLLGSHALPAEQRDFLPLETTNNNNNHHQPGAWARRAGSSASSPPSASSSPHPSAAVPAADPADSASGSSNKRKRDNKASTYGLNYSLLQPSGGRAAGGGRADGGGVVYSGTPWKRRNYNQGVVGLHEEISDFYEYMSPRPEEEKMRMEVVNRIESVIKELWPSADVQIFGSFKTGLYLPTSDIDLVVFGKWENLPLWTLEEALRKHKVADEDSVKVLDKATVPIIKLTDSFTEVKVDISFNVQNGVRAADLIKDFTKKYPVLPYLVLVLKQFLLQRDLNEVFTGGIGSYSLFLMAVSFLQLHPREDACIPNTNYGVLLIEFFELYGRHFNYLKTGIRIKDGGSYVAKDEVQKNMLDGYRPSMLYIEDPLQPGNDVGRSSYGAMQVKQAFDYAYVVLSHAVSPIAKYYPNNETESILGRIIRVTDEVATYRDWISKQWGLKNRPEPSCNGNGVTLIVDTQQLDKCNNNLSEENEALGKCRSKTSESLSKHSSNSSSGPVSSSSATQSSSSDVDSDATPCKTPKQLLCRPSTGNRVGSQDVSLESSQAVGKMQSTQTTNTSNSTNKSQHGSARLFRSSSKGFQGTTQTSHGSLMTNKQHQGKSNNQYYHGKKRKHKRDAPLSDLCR
reported-endpoint: Fold-change determined at compound concentration 100 μM

molecule	experimental-system	recorded-result
Cn1c(=O)c2nc(SCC(=O)O)n(Cc3ccccc3)c2n(C)c1=O [Entry 80]	PAPD5 (Homo sapiens)	1.55
Cc1nnc(NC(=O)c2cc(=O)c3cc(F)ccc3o2)s1 [Entry 120]	PAPD5 (Homo sapiens)	1.381
O=C(NCCN1CCCC1)c1ccc(Cn2c(SCc3ccc(Cl)cc3)nc3ccncc32)cc1 [Entry 203]	PAPD5 (Homo sapiens)	1.31
O=C(CCCn1c(=O)c2cccn2c2ccc(Br)cc21)N1CCCC1 [Entry 65]	PAPD5 (Homo sapiens)	1.394
CCOC(=O)c1ccc(NC(=O)CCc2c(C)nc3c(c(C)nn3C)c2C)cc1 [Entry 184]	PAPD5 (Homo sapiens)	1.294
